Where do these numbers come from? They come from the nanobody polyreactivity screen of Harvey et al. (2022).

Test: yeast display, Sf9 membrane polyspecificity reagent, FACS + sequencing; frameworks hold sequencing errors
VALUE_TYPE: polyreactivity (PSR sort gate)

ITEM_SEQUENCE	VALUE_TYPE	VALUE
QVQLVESGGGLVQAGGSLRLSCAASGRTFYSNTMGWYRQAPGNERELVAAISRSGVGTYYADSVKGRFTISRDIAKNSVYLHMNSLKPEDTAVYYCAALPTGKSGYLYDYWGQGTQVTVSS	polyreactivity (PSR sort gate)	high polyreactivity
QVQLVESGGGLVQAGGSLSLSCAASGLIYYSYAMGWYRQAPGKERELVAAITGGGSTNYADSVKGRFTISPDNAKNTVYLQMNSLKPEDTAVYYCAAAFTLRKYDYWGQGTQVSVSS	polyreactivity (PSR sort gate)	low polyreactivity
QVQLVESGGGLVQAGGSLRLSCAASGRTFRGYAMGWYRQAPGKERELVAAITSSGGRTYYADSVKGRFTISRDNAKNTVYLQMNSLKPEDTAVYYCAKDYYSPRGYDYWGQGTQVTVSS	polyreactivity (PSR sort gate)	high polyreactivity
QFQHVESGGGLVQAGGSLRLSCAASGRTFGPYAMGCYIQAPGKERELVAAISSGGRTYYADSVKGRFTISRDNAKNTVYFQMNSLKPEDTAVYYCAATYGPSRYRYDYWGQGTQVTVSS	polyreactivity (PSR sort gate)	high polyreactivity
QVQLVESGGGLDQAGGSLRLSCAASGFTFARYTMGWYRQAPGKEREFVAAISWSGGRTYYADSVKGRFTISRDNAKNTVYLQMNSLKPEDTAVYYCAARRKTTKYDYWGQGTQVTVSS	polyreactivity (PSR sort gate)	high polyreactivity
QVQLQESGGGLVQAGGSLRLSCAASGSNFKVVEMGLYRQAPAKDREFVATIGEGGNTYYADSVKGRFTISRDNAKNTVYLQMNSLKPEDTAVYFYAVVLGTSYRYTYWGQGTQVTVSS	polyreactivity (PSR sort gate)	low polyreactivity
QVQLVESGGGLVQAGGSLRLSCAASGSIFRGYTMGWYRQATGKERELVAAITSGDSTNYADSVKGRFTISRDNAKNTVYLQMNSLKPEDTAVYYCAAGRLYLPYLVYLTYSFVGYYYWGQGTQVTVSS	polyreactivity (PSR sort gate)	high polyreactivity
QVQLVESGGGLVQAGGSLRLSCAASGRTFPSYVMGWYRQAPGKERELVAAITATGASTYYADSVKGRFTISRDNAKNTVYLQMNSQKPEDTAVYYCAASRYGLYENGYEYYWGQVTQVTVSS	polyreactivity (PSR sort gate)	low polyreactivity

Ask: Give polyreactivity (PSR sort gate) for `QVQLVESGGGLVQAGGSLRLSCAASGSTFSYYTMGWYRQAPGKERELVAAISKSGGITYYADSVKGRFTISRDNAKNTVYLQMNSLKPEDTAVYYCAADGGYYDDDYWGQGTQVTVSS`
Reply: high polyreactivity

Ask: // fetch polyreactivity (PSR sort gate) given entry `QVQLVESGGGLVQAGGSLRLSCAASGRTFGYYAMGWYRQAPGKERELVAAISSAGSSTYYADSVKGRFTISRDNAKNTVYLQMNSLKPEDTAVYYCAASSRSFIRVYYWGQGTQVTVSS`
Reply: high polyreactivity

Ask: Check the records and state polyreactivity (PSR sort gate) for `QVQLVESGGGLVQAGGSLRLSCAASGRTFYGYAMGWYRQAPGNERELVATITRRGGSTYYADSVKGRFRISRDNAKNTVYLQMNSLKPEDTAVYYCARQGDQYYRDGDDYWGQGTQVTVSS`
Reply: high polyreactivity

Ask: Supply measured polyreactivity (PSR sort gate) of `QVQLVESGGGLVQAGGSLRLSCAASGSIFTTYAMGWYRQAPGKERELVAGITGGDSSTYADSVKGRFTISRDNAKNTVYLQMNSLKPEDTAVYYCAVDSPYQHDDYWGQGTQVTVSS` in your reply.
Reply: low polyreactivity

Ask: Consider the sequence `QVQLVESGGGLVQAGGSLRLSCAASGFIFSSYAMGWYRQAPGKERELVAAITSGGSTYYADSVKGRFTISRDNAKNTVYLQMNSLKPEDTAVYYCAADHWDGQYWFDYWGQGTQVTVSS` . State its measured polyreactivity (PSR sort gate).
Reply: low polyreactivity
